target: Bcl-xL (Homo sapiens, UniProt Q07817); assay: Time Resolved-Fluorescence Resonance Energy Transfer (TR-FRET) binding assay, competition with probe F-Bak; conditions: without HS; read-out: Bcl-xL Binding Ki
Sequence (Q07817 whole entry): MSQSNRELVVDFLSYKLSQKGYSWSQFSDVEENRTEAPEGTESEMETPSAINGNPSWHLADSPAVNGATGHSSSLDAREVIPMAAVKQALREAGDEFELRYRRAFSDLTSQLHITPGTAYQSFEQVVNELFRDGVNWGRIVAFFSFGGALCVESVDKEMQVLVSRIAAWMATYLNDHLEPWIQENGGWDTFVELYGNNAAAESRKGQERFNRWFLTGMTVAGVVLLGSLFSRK
pKi: −log10 of the molar value.
# pKi values compiled below
measurement_name: pKi

{"smiles": "Cc1c(-c2ccc(N3CCc4cccc(C(=O)Nc5nc6ccccc6s5)c4C3)nc2C(=O)O)cnn1CC12CC3(C)CC(C)(C1)CC(OCCNC[C@@H](O)[C@@H](O)[C@H](O)CO)(C3)C2", "recorded_result": "> 11.00"}
{"smiles": "Cc1c(-c2ccc(-c3ccc4c(c3)N(C(=O)Nc3nc5ccccc5s3)CCC4)nc2C(=O)O)cnn1CC12CC3(C)CC(C)(C1)CC(OCCN(C)CCCN)(C3)C2", "recorded_result": "> 11.00"}
{"smiles": "CNCCOC12CC3(C)CC(C)(CC(Cn4ncc(-c5ccc(-c6ccc7c[n+]([O-])cc(C(=O)Nc8nc9ccccc9s8)c7c6)nc5C(=O)O)c4C)(C3)C1)C2", "recorded_result": 9.90}
{"smiles": "Cc1c(-c2ccc(N3CCc4cccc(C(=O)Nc5nc6cccnc6s5)c4C3)nc2C(=O)O)cnn1CC12CC3(C)CC(C)(C1)CC(OCCNCCCP(=O)(O)O)(C3)C2", "recorded_result": "> 12.00"}
{"smiles": "Cc1c(-c2ccc(N3CCc4cccc(C(=O)Nc5nc6ccccc6s5)c4C3)nc2C(=O)O)cnn1CC12CC3(C)CC(C)(C1)CC(OCCN(CCCN)CCS(=O)(=O)O)(C3)C2", "recorded_result": "> 12.00"}
{"smiles": "Cc1c(-c2ccc(-c3cc4cccc(C(=O)Nc5nc6ccccc6s5)c4[nH]3)nc2C(=O)O)cnn1CC12CC3(C)CC(C)(C1)CC(OCCNCCS(=O)(=O)O)(C3)C2", "recorded_result": "> 11.00"}
{"smiles": "Cc1c(-c2ccc(N3CCc4cccc(C(=O)Nc5nc6ccccc6s5)c4C3)nc2C(=O)O)cnn1CC12CC3(C)CC(C)(C1)CC(OCCN(CCN)CCS(=O)(=O)O)(C3)C2", "recorded_result": "> 12.00"}
{"smiles": "Cc1c(-c2ccc(N3CCc4cccc(C(=O)Nc5nc6ccccc6s5)c4C3)nc2C(=O)O)cnn1CC12CC3(C)CC(C)(C1)CC(OCCNCCCS(=O)(=O)O)(C3)C2", "recorded_result": 10.72}
{"smiles": "Cc1c(-c2ccc(N3CCc4cccc(C(=O)Nc5nc6ccccc6s5)c4C3)nc2C(=O)O)cnn1CC12CC3(C)CC(C)(C1)CC(OCCN(CCCC(=O)O)C1CCNCC1)(C3)C2", "recorded_result": "> 12.00"}
{"smiles": "CO[C@H]1O[C@@H](Cn2cc(CCCNCCOC34CC5(C)CC(C)(CC(Cn6ncc(-c7ccc(N8CCc9cccc(C(=O)Nc%10nc%11ccccc%11s%10)c9C8)nc7C(=O)O)c6C)(C5)C3)C4)nn2)[C@H](O)[C@@H](O)[C@@H]1O", "recorded_result": "> 11.00"}
{"smiles": "CNCCCc1cc2c(c(C(=O)Nc3nc4ccccc4s3)c1)CN(c1ccc(-c3cnn(CC45CC6(C)CC(C)(C4)CC(OCCNCCS(=O)(=O)O)(C6)C5)c3C)c(C(=O)O)n1)CC2", "recorded_result": 10.80}
{"smiles": "CNCCOC12CC3(C)CC(C)(CC(Cn4ncc(-c5ccc(N6CCc7c(OCCCP(=O)(O)O)ccc(C(=O)Nc8nc9ccccc9s8)c7C6)nc5C(=O)O)c4C)(C3)C1)C2", "recorded_result": "> 12.00"}
{"smiles": "Cc1c(-c2ccc(-c3ccc4c(c3)N(C(=O)Nc3nc5ccccc5s3)CCO4)nc2C(=O)O)cnn1CC12CC3(C)CC(C)(C1)CC(OCCNCCS(=O)(=O)O)(C3)C2", "recorded_result": "> 12.00"}
{"smiles": "Cc1c(-c2ccc(-c3ccc4c(c3)N(C(=O)Nc3nc5ccccc5s3)CCC4)nc2C(=O)O)cnn1CC12CC3(C)CC(C)(C1)CC(OCCN(C)C(=O)[C@@H](N)CS(=O)(=O)O)(C3)C2", "recorded_result": 11.40}
{"smiles": "Cc1c(-c2ccc(N3CCc4cccc(C(=O)Nc5nc6ccccc6s5)c4C3)nc2C(=O)O)cnn1CC12CC3(C)CC(C)(C1)CC(OCCN(CCS(=O)(=O)O)C1CCNCC1)(C3)C2", "recorded_result": "> 12.00"}
{"smiles": "Cc1c(-c2ccc(-c3cnc4cccc(C(=O)Nc5nc6ccccc6s5)c4c3)nc2C(=O)O)cnn1CC12CC3(C)CC(C)(C1)CC(OCCNCCS(=O)(=O)O)(C3)C2", "recorded_result": "> 11.00"}
{"smiles": "Cc1c(-c2ccc(N3CCc4cccc(C(=O)Nc5nc6ccccc6s5)c4C3)nc2C(=O)O)cnn1CC12CC3(C)CC(C)(C1)CC(OCCN(C)C(=O)[C@@H](N)CCCC[N+](C)(C)C)(C3)C2", "recorded_result": 11.05}
{"smiles": "Cc1c(-c2ccc(-c3cnc4cccc(C(=O)Nc5nc6ccccc6s5)c4c3)nc2C(=O)O)cnn1CC12CC3(C)CC(C)(C1)CC(OCCNCCC(=O)O)(C3)C2", "recorded_result": "> 11.00"}
{"smiles": "Cc1c(-c2ccc(N3CCc4cccc(C(=O)Nc5nc6ccccc6s5)c4C3)nc2C(=O)O)cnn1CC12CC3(C)CC(C)(C1)CC(OCCNS(=O)(=O)CCCNC(CO)CO)(C3)C2", "recorded_result": 10.51}
{"smiles": "Cc1c(-c2ccc(-c3ccc4cccc(C(=O)Nc5nc6ccccc6s5)c4c3)nc2C(=O)O)cnn1CC12CC3(C)CC(C)(C1)CC(OCCNCCCO[C@@H]1O[C@H](C(=O)O)[C@@H](O)[C@H](O)[C@H]1O)(C3)C2", "recorded_result": "> 11.00"}

These measurements were taken from patent US20240058450A1.
